The reported numbers originate from the supplement of paper PMC12667976.

# AIRE transcriptional activation functional score values compiled below
B1: library; numbered along this chain (parent)
chain: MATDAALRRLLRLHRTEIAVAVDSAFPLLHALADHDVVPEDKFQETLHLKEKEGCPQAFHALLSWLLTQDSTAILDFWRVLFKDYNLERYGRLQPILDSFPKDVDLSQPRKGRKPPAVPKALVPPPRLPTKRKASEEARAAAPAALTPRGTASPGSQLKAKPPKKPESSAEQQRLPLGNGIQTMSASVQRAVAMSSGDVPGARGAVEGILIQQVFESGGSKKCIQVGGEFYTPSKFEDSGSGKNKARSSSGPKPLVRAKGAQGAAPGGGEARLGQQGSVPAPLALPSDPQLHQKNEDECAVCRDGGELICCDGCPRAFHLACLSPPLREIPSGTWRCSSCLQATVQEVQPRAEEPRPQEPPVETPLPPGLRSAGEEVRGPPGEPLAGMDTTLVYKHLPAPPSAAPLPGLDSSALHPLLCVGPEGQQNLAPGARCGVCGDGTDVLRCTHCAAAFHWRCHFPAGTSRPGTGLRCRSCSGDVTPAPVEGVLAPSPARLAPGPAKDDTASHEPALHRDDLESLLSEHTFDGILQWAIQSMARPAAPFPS

variants of: B1; assay: AIRE transcriptional activation functional score (insulin promoter-GFP; nonsense median 0, synonymous median 1) (normalised score); higher = higher AIRE activity (more reporter activation); conditions: with insulin promoter-GFP reporter in HEK293
The reply should be a number, written without any unit.

Some solved entries appear below for comparison.
L283M :: 1.34
P539Y :: -0.367
H458Q :: 0.165
L385R :: 0.699

Exercise: Please give the documented AIRE transcriptional activation functional score of V443F
Key: 0.581

Exercise: Tell me AIRE transcriptional activation functional score reported for S249G
Key: 1.22
